Molecular target: T1, human TIGIT on CHO-K1 cells (human, UniProt Q495A1 23-244)
T1 construct: also called hu TIGIT; TIGIT+CHO-K1 cells
T1 sequence: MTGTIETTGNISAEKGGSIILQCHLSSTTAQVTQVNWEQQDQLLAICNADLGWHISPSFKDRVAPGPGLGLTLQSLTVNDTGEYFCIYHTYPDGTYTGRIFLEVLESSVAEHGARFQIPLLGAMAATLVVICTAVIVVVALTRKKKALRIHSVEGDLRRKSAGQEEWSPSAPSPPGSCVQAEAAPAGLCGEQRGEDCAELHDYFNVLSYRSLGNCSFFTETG
Test: flow cytometry competition with biotinylated hPVR-mIg on CHO-K1 cells expressing human TIGIT
VALUE KIND: IC50

Query: Identify IC50 associated with the binder T-03 (antibody, V domains shown, Anti-human TIGIT monoclonal antibody from mouse hybridoma; also called anti-hu TIGIT mab T-03) VH: EVQLVQSGAEVKKPGATVKISCKVSGYTFTDHTIHWVQQAPGKGLEWMGYFYPRDGSTKYNEKFKGRVTITADTSTDTAYMELSSLRSEDTAVYYCATGMLRWFADWGQGTLITVSV VL: DIQMTQSPSSLSASVGDRVTITCKASQDVSTTVAWYQQKPGKAPKLLIYSASYRYTGVPSRFSGSGSGTDFTLTISSLQPEDFATYYCQQHYSTPLTFGAGTKLELK
Result: 0.26 to 0.52 nM

Query: Identify IC50 associated with the binder T-02 (antibody, V domains shown, Anti-human TIGIT monoclonal antibody from mouse hybridoma; also called anti-hu TIGIT mab T-02) VH: QVKLQESGPGLVKPSQTLSLTCTVTGYSITSDYAWNWIRQPPGKGLEWIGYITYSGGTSYNPSLKSRVTISVDTSKNQFSLKLSSVTAADTAVYSCARRQIGLGFTYWGQGTLVTVSA VL: DIQMTQSPSSLSASVGDRVTIPCKASQDLSTAVAWYQQKPGKAPKLLIYSSSYRYTGVPSRFSGSGSGTDFTLTISSLQPEDFATYYCQQSYSTPQQHYSTPWTFGEGTKLEIK
Result: 0.35 to 0.71 nM

Query: Identify IC50 associated with the binder T-05 (antibody, V domains shown, Anti-human TIGIT monoclonal antibody from mouse hybridoma; also called anti-hu TIGIT mab T-05) VH: EVQLKQSGAEVKKPGATVKISCKVSGYTFTDQAIHWVQQAPGKGLEWMGYIYPRDGSTKYNETFKGRVTITADTSTDTAYMELSSLRSEDTAVYFCARGMLRWFAYWGQGTLVTVSS VL: DIQMTQSPSSLSASVGDRVTITCKASQDVSTAVAWYQQKPGKAPKLLIYSASYRYTGVPSRFSGSGSGTDFTLTISSLQPEDFATYYCQQHYSTPLTFGAGTKLELK
Result: 0.2 to 0.46 nM

meta.source: patent US20200164071A1
